assay: Solubility of compound A in various solvents (standard solubility determination); assay type: physicochemical; conditions: organic solvent or mixture; N-methylpyridine; 25 °C
measure: solubility (mg/mL)

| compound-structure | value-unit | meas-value |
| --- | --- | --- |
| CC(C)N1Cc2cc(C(F)(F)F)ncc2-c2cnc(NCc3c(F)ccc4c3CCO4)n3cnc(c23)C1=O | mg/mL | 11 |

====

Assay: Solubility of compound A in various solvents (standard solubility determination)
Format: physicochemical
Conditions: organic solvent or mixture; Methanol: dichloromethane (2:1); 25 °C
Procedure: The solubility (25 °C) of the active ingredient compound A in various solvents was determined using a standard solubility determination method well known in the art.

| compound-structure | solubility / mg/mL |
| --- | --- |
| CC(C)N1Cc2cc(C(F)(F)F)ncc2-c2cnc(NCc3c(F)ccc4c3CCO4)n3cnc(c23)C1=O | 14.3 |
